What IC50 was measured for each of the following?
- testTarget: LFA-1 binding to immobilized ICAM-1 (Homo sapiens, UniProt P05107+P20701)
- Construct: made in house; host or cells: transfected 293 cells (LFA-1)
- Sequence (P20701 26-1170): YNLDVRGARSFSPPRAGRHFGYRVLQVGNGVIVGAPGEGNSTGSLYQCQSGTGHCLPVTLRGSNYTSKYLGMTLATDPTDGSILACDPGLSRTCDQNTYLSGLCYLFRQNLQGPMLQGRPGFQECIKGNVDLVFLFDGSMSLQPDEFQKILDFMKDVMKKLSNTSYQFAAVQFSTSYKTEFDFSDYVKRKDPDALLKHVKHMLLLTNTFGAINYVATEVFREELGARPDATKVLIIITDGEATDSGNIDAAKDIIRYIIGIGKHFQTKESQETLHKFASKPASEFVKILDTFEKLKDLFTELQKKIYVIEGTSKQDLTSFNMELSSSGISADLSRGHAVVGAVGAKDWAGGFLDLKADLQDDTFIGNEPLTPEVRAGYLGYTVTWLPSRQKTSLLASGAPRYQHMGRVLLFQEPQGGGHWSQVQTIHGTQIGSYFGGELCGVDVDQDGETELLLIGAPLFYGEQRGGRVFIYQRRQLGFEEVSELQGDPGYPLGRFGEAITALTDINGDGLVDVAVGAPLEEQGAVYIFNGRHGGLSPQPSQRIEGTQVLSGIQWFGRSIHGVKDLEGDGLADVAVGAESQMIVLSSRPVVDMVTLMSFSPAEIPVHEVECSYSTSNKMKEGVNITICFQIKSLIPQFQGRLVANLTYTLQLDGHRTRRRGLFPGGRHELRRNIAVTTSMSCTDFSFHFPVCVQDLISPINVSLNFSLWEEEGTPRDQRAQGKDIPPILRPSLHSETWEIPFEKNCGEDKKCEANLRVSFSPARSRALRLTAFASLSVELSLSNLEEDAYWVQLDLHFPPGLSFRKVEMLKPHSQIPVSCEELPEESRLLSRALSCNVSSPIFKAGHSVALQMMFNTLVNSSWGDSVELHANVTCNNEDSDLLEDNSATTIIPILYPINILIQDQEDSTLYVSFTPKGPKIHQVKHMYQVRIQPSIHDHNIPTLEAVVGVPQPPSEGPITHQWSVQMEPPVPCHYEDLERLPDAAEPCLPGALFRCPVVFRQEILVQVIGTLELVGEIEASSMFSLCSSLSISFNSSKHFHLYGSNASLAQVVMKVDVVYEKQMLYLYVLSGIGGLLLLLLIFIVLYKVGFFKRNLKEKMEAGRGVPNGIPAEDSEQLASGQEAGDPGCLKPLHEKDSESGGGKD
- Sequence (P05107 23-769): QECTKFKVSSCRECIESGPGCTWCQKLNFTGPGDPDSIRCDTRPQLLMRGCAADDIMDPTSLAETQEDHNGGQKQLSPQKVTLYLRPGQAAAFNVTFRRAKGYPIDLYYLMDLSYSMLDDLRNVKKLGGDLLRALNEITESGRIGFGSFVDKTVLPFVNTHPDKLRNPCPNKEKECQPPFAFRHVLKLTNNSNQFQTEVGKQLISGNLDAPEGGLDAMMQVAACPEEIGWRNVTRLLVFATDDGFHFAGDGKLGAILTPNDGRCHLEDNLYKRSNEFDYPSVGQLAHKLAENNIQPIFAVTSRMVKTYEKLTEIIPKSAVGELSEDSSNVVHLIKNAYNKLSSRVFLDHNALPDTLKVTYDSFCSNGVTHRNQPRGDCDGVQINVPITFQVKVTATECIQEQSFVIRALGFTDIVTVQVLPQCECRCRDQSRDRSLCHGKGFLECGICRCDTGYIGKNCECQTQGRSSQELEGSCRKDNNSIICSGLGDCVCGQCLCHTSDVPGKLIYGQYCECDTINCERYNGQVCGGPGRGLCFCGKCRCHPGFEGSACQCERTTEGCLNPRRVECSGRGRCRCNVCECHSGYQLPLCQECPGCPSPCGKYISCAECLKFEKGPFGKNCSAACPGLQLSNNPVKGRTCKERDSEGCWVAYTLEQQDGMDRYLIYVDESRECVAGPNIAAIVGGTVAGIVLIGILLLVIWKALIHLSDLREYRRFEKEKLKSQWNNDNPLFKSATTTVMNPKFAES
- experimentSummary: LFA-1/ICAM-1 Protein-Protein Assay (solid-phase ELISA)
- protocolConditions: 5dICAM-Ig coated plates; membrane-bound LFA-1 from transfected 293 cells
Answers are plain numbers, in nM.

Examples with their reported IC50 follow.
O=C(O)/C(=C/c1cnc2ccccc2c1)NC(=O)c1ccc(C(O)CCc2cccc(O)c2)cc1Cl (racemic) [Example 296]
1.56
Cc1nc(C)c(/C=C(\NC(=O)c2ccc(C(=O)NCc3cccc(N)c3)cc2Br)C(=O)O)s1 [Example 321]
7.52
Cc1cc(C(=O)NCc2cccc(O)c2)cc(Cl)c1C(=O)N/C(=C\c1ccc2[nH]nnc2c1)C(=O)O [Example 291]
0.4
O=C(O)/C(=C/c1cnc2ccccc2c1)NC(=O)c1ccc(C(=O)NCc2ccc3cc[nH]c3c2)cc1Cl [Example 324]
50.8
O=C(O)/C(=C/c1ccc2ccccc2n1)NC(=O)c1ccc(C(=O)NCc2cccc(O)c2)cc1Br [Example 275]
42.5

For each of the items listed, what is its IC50?
1. Cc1cc(C(=O)NCc2cccc(O)c2)cc(C)c1C(=O)N/C(=C\c1ccc2[nH]nnc2c1)C(=O)O [Example 326]
2. Cc1cc(C(=O)NCc2cccc(O)c2)cc(Cl)c1C(=O)N/C(=C\c1ccccc1)C(=O)O [Example 293]

Ans:
1. 1.12
2. 1.29
